Answer each item with its documented IL6; Luninex (supernatant).
- testedOn: T1, TCR gamma/delta constant region (TRGDC) (human, UniProt P0CF51 1-173; B7Z8K6 1-153)
- T1 chain (looked up) 1: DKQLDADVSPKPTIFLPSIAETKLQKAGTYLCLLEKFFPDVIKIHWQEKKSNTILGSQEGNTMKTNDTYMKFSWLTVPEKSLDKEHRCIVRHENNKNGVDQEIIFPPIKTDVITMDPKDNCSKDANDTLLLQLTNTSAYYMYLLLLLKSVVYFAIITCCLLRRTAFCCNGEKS
- T1 chain (looked up) 2: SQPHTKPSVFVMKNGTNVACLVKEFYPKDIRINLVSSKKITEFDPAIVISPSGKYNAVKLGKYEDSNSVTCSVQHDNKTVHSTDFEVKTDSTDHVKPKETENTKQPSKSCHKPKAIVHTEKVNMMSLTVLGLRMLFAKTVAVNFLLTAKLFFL
- assayExplanation: cell-based or functional assay
Form rule: numeric answer, no unit written next to it.

Query block: Suppose we examine the binder VG9B112 (antibody, human IgG1, kappa, V domains shown) VH: QVQLQQSGPGLVKPSQTLSLTCAISGDSVSSNSAAWNWIRQSPSRGLEWLGGTYYRSKWFNNYAVSVKSRITINPDTSTNQFSLQLNSVTPADTAVYYCARGEWGLRDAFDIWGQGTMVTVSS VL: DIQMTQSPSFLSASVGDRVIITCRASQGIHSYLAWYQQKPGKVPKLLIYVASTLQSGVPSRFSGSGSGTEFTLTISSLQPEDFATYYCQQLNSYPWTFGQGTKLEIKR ; what IL6; Luninex (supernatant) value has been reported?
Result block: 256

Query block: Suppose we examine the binder VG9B387 (antibody, human IgG1, lambda, V domains shown) VH: EVQLVESGAEVKKPGASVKVSCKASGFTFTGYYLQWVRQAPGQGLEWMGWINPNSGYTDYAQRFQDRVTMTRDTSINTAYMELSRLRSDDTAVYYCARLDDAFDVWGQGTMVTVSS VL: SYELTQDPAVSVALGQTVRITCQGDSLRNYYAIWYQQKPGQAPVLVIFGKNNRPSGIPDRFSGSSSGTTASLTITGTQAEDEADYYCNSRDSSGNHWVFGGGTKLTVLG ; what IL6; Luninex (supernatant) value has been reported?
Result block: 5200

Query block: Suppose we examine the binder VG9B369 (antibody, human IgG1, kappa, V domains shown) VH: EVQLLESGPTLVKPTQTLTLTCTFSGFSLSTIGVGVGWIRQPPGKALEWLSLIYWNDDKRYNPSLKSRLTITKDTSKNQVVLTMTNMDPVDTATYYCAHSHDWVHAFDIWGQGTMVTVSS VL: DIVMTQSPSSLSASVGDRVTITCQASQDISHYLNWYQQKPGKAPKFLIYDASNLDTGVPSRFSGSGSGTDFTFTISSLQPEDIATYYCQQYDNFPLTFGGGTKVEIKR ; what IL6; Luninex (supernatant) value has been reported?
Result block: 4900
